Just for reference, the RNAGym collection of RNA variant scans (doi:10.1126/science.aae0568) is where these values come from.

B1: tRNA (parent)
chain: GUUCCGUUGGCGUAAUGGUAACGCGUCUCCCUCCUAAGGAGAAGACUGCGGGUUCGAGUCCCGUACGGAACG

Variants of: B1
Test: yeast fitness relative to wild type (ratio to wild type); higher = fitter; tRNA-Arg(CCU), competitive growth, 37 C, YPD
This sample holds only a part of the variants without activity.
yeast fitness vs 0.7: at or above is Y, below is N.

**Query** Is the recorded value of yeast fitness equal to or greater than 0.7 for this variant? GUUCCGUAGGCGUAAUGGUAACGCGUCUCCCUGCUAAGGAGUUGACUGUGGGUUCGAGUCCCGUCCGCAACG [U8A C33G A42U A43U C49U A65C G68C]
**Result** N

**Query** Try this variant next: GAUACGUUGGCGUAAUGGUAACGCGUCUCCCUCCUAAGGAGAAGAGUGCGGAUUCGAGUCCCGUACGGAACG [U2A C4A C46G G52A]
**Result** N

**Query** Try this variant next: GUUCCGUUGGCGUAAUGGUAACGCGUCUCCCUCCUAAGGAGAAGACUGCGGGUUCGAGUCCCGUAUGGAACG [C66U]
**Result** Y

**Query** Try this variant next: GUUCGGUUGGCGUAAUGGUAACGUGUCUCCCUCCUAAGGAGAAGGCUGCGGGUUCGAGUCCCGUACGGAACG [C5G C24U A45G]
**Result** Y

**Query** Try this variant next: GUUCCGUUGGCGUAAUGGUAACGCGUCUCCCUCCUAAGGAGAAGACUGCGGGUUCGAGUUCAGUACGGAACG [C60U C62A]
**Result** N

**Query** Try this variant next: GUUCCGAUGACGUAAUGGUAACGCGUCUCACUCCUAAGGAGACGACUGCGGGUUCGAGUCCCGUAUGGAACG [U7A G10A C30A A43C C66U]
**Result** N

**Query** Try this variant next: GUUCCGUUGGCGUAUUGGUACCGGGUCUUCCUCCUAAGGAGCAGACUGCGGGUUCGAGGCCCGUACUGAACG [A15U A21C C24G C29U A42C U59G G67U]
**Result** N

**Query** Try this variant next: GUUCCGUUGGCGUAAUGGAAACGCGUCUCCUUCCUAAGGAGAAGACUGCGGGUUCGAGUCCCGUACGGAACG [U19A C31U]
**Result** Y

**Query** Try this variant next: GUUCCGUUGGCGUAAUGGUCACGCGUCUCCCUCUUAAGGAGAAGACUGCGGGUUCGAGUCCCGUACGGAACG [A20C C34U]
**Result** N

**Query** Try this variant next: GUUCCGAUGGCGUAAUGGUCGCACGUCUCCCUCCUAAGGAGAAGACUGCGGGUUCGAGUCCCGUACGGAUCG [U7A A20C A21G G23A A70U]
**Result** N

**Query** Try this variant next: GUUCCGUUGGCGUAAUGGAAAGGCGUCUCGCUCCUAAGGAGGAGAGUGCGGGUUCGAGUCCCGUACGGAACG [U19A C22G C30G A42G C46G]
**Result** Y

**Query** Try this variant next: GUUCCGUUGGCGUUAUGGUAACGCGUCUCCCUCCUAAGGAGAAGACUGAGGGUUCGAGUCCCGUACGGAACG [A14U C49A]
**Result** N

**Query** Try this variant next: GUUCCGUUGGCCUAAUGGUCACGCGUCUCCGUCCUAAGGAGAAGACUGCGGGUUCGAGUCCCGAACGGAACG [G12C A20C C31G U64A]
**Result** N

**Query** Try this variant next: GUUCCAUUCGCGUAAUGGUAACGCGUCUCCCUCCUAAGGAGAAGAGUGCGGGUUCGAGUCCCGUACGGAACG [G6A G9C C46G]
**Result** N

**Query** Try this variant next: GUUCCGUUGGCGUAAUGGUAACGCGUCUCCCUCCUAAGGCGAAGACUGCGGGUUCGAGUCCCGUACGGGACG [A40C A69G]
**Result** Y

**Query** Try this variant next: GUUCCGUUGGCGUACUGGUAACGCGUCUCCCUCCUUGGGAGAAGACUGCGGGUUCGAGUCCCGUCCGGAACG [A15C A36U A37G A65C]
**Result** N

**Query** Try this variant next: GUUCCGUUGGCGUAAUGGCAACGCGUCUCCAUCCUAAGGACAAGACUGCGGGUUCGAGUCCCGUACGGAACG [U19C C31A G41C]
**Result** N

**Query** Try this variant next: GUUCUGUUGGCGUAAUGGUAACGCGUCUCCCUCCUAAGGAGAAGACUGCGGAUUCGAGUCCCCUACGGAACG [C5U G52A G63C]
**Result** N

**Query** Try this variant next: GCUCCGUUGGAGUAAUGGUAACGCGUCUCCCUCCUAAGGAGAAGACUGCGGGUUCGAGUCCCGUACGGAACG [U2C C11A]
**Result** N

**Query** Try this variant next: GGUCCGUUGGCGUAAUGGUAACGCGUCUCCCUCCUAAGGAGAAGACUGCGGGUUGGAGUCCCGUACGGAACG [U2G C55G]
**Result** N

**Query** Try this variant next: GUUCCGUCGGCGUAGUGGAAACGCGUCUACCUCCUGAGGAGAAGACUGCGAGUUCGAGUCCCGUACGGAACG [U8C A15G U19A C29A A36G G51A]
**Result** N

**Query** Try this variant next: GUUCCGUUGGCGUAGUGGUAACGCGUCUACCUCCUAAGGAGAAGACUGCGGGUUCGAGUCCCGCACGGAACG [A15G C29A U64C]
**Result** N

**Query** Try this variant next: GUUCCGUCGGCGUAAUGGUAACGCGUCUCAUUCCUAAGGAGAAGACUGCGGGUCCGAGUCCCGUACGGAACG [U8C C30A C31U U54C]
**Result** N

**Query** Try this variant next: GUUCCGUUGGCGUAAUGGUAACGCGUCUCCCUCCUAAGGAGUGGACUGCGGGUUCGAGUCCCGUACGGAACG [A42U A43G]
**Result** Y

**Query** Try this variant next: GUUCCGUUGGCGUAACGGUAACGCGUCUCCCUCCUAAGGAGCAGACUGCGGGUUCGAGUCCCGUUCGGAACG [U16C A42C A65U]
**Result** N

**Query** Try this variant next: GUUCUGUUGGCGUAAUGGUAACGCGUCUCCCUCGUAUGGAGAAGACUGGGGGUUCAAGUCCCGUACGGAACG [C5U C34G A37U C49G G56A]
**Result** N

**Query** Try this variant next: GUUCCGUUGGCGUAAUGGUAACGCGUCUUCCUCCUAACGAGAAGAAUGCGGGUUCGAGUCCCGUACGGAACG [C29U G38C C46A]
**Result** N

**Query** Try this variant next: GUUCCGUUGGCGUAAUGGUAAACCGUCUCCCUCCUAAGGAGGAGACUGCGGGUUCGAGUCCCGUACGGAACG [C22A G23C A42G]
**Result** N

**Query** Try this variant next: GUUCCGUUGGCGUAAUGGUAACGCGUCUCCCGCCAAAGGAGAAGACUACGGGUUCGAGUCCCCUACGGGACG [U32G U35A G48A G63C A69G]
**Result** N

**Query** Try this variant next: GUUCCGUUGGCGUGAUGGUAACGCGUCUCCCUCGUAAGGAGAAGACUGCGGGUUCGAGUCCCCUACCGAACG [A14G C34G G63C G67C]
**Result** N

**Query** Try this variant next: GUUCCGUUGGCGUAAUGGUAACGUGUCUUCCUCCUAAGGAGAAGACUGCGGGUUCGAGUCCCGUACGGAACG [C24U C29U]
**Result** Y

**Query** Try this variant next: GUUCCGUUGGCGUAAUGGUAACGCGUCUCCCUCAUAAGCAGAAGACUGCGGGUUCGAGUCCCGUACGGAACG [C34A G39C]
**Result** Y

**Query** Try this variant next: GGUCCGUUGGCGUAAUGGUAACGCGUCUCCCUGCUAAGGAGAAGACUGCGGGUUCGAGUCCUGUUCGGAACG [U2G C33G C62U A65U]
**Result** N

**Query** Try this variant next: GGUCCGUUGGCGUUAUGGUAAGGCGUCUCGCUCCUAAGGAGAAGACUGCGGGUUCGAAUCCCGUACGGAACG [U2G A14U C22G C30G G58A]
**Result** N

**Query** Try this variant next: GUUCCGUUGGCGAAAUGGUAACGCGUCUCCCUCCUAAGGAGCAGACUGCGGGUUCGAGUCCCGUACGGAACG [U13A A42C]
**Result** Y

**Query** Try this variant next: GUUCCGUUGGCCUAAUGGUAACGCGUCUCCGUCCUAAGGAGAAGACUGCGGGUUCGAGUCCCGUCCGGAACG [G12C C31G A65C]
**Result** N

**Query** Try this variant next: GUUCCGUUGGCGUAAUGGUAACGCGUCUCCCUCCUAAGGAGAAGACAGCGGGUUCGAGUCCCGUACGGAUCG [U47A A70U]
**Result** Y

**Query** Try this variant next: GUUCCGUUGGCGUAAUGGUAACGCGCGUCCCUCCUAAGGAGAAGACUGCGGGUUCGAGUCCCGUACGGCACG [U26C C27G A69C]
**Result** N

**Query** Try this variant next: GUUCCGUUGGCGUAAUGGCAACGCGUCUCCCACCUACGGAGAAGACUGCGGGUUGGAGUCCCGUACGGAACG [U19C U32A A37C C55G]
**Result** N

**Query** Try this variant next: GUGCCGUUGGCGUAAUGGUAACGUGUCUCCCUCCUAAGGAGAAGACUGCGGGUUCGAAACCCGUUCGGAACG [U3G C24U G58A U59A A65U]
**Result** N

**Query** Try this variant next: GUUCCAUUGGCGUAAUGGUAACGCGUCUCCCUCCUACGGGGAAGACUGCGGGUUCGAGUCCCGUACGGAACG [G6A A37C A40G]
**Result** N

**Query** Try this variant next: GUUCCGUUGGUGUAAUGGUAACGCGUCUCCCUCCCAAGGAGAAAACUGCGGGUUCGAGUCCCGUACGGAACG [C11U U35C G44A]
**Result** Y
